- targetOrSystem: ATP7B (Homo sapiens)
- Sequence (P35670 whole entry): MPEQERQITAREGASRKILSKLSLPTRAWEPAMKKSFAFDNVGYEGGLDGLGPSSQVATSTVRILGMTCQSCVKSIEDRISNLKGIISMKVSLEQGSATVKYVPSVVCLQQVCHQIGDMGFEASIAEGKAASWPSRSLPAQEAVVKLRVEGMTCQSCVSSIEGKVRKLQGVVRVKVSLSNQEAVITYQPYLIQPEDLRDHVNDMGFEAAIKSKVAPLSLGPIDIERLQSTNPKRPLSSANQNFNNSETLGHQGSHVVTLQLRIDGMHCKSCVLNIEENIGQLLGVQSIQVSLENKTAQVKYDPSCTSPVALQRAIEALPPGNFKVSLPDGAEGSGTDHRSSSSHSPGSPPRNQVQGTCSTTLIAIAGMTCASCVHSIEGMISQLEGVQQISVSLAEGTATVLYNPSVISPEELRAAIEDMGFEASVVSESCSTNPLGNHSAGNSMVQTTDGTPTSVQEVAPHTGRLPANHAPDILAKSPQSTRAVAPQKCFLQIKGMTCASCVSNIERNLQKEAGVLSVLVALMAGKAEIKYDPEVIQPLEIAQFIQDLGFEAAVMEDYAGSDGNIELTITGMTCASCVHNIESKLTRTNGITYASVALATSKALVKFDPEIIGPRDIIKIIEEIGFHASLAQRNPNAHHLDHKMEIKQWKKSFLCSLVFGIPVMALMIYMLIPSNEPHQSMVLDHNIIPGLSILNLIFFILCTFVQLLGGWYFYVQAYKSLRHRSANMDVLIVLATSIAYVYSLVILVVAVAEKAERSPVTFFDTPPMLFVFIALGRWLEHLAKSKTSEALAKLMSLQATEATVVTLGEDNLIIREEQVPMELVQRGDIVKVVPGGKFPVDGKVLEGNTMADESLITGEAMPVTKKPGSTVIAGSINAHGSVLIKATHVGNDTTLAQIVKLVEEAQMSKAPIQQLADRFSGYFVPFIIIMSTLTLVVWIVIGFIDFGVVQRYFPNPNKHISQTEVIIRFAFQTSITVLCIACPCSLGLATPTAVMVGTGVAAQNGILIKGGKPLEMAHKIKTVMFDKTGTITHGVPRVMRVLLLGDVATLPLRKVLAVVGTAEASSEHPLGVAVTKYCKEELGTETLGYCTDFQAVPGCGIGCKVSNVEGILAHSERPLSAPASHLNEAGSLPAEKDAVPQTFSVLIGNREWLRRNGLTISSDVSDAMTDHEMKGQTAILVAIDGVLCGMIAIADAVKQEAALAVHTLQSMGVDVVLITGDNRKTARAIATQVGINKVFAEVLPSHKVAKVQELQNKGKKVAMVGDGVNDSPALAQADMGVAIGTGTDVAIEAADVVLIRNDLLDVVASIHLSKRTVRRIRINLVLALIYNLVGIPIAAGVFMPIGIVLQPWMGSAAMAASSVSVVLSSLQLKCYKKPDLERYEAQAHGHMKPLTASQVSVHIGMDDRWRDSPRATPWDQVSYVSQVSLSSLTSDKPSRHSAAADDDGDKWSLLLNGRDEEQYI
- measurementNotes: Microscale thermophoresis (MST) binding to GFP-ATP7B in HEK293 cell lysates
- conditionParameters: MST analysis; read-out: affinity for ATP7B
readout: Kd

> print(dat)
                                   compound    val
1  N#CC(C(=O)Nc1cccc(C(F)(F)F)c1)C(=S)Nc1ccccc1Cl (stereo not shown)  76 nM

* * *

- measurementNotes: Cytotoxicity in B16 cells by MTT and crystal violet assays
- Format: cell-based
- conditionParameters: mouse, B16 melanoma cells; B16 cells, MTT and crystal violet assays; read-out: half-maximal cytotoxic concentration (CC50)
readout: CC50

> print(dat)
                               compound      val
1  O=C(CC(=S)Nc1ccccc1)Nc1ccccc1 [MKV1]  ~270 µM
